- target or test system: Dihydrolipoyl dehydrogenase (Mycobacterium tuberculosis (strain ATCC 25618 / H37Rv))
- protocol: Mycobacterium tuberculosis lipoamide dehydrogenase inhibition, DTNB colorimetric coupled assay, dose response confirmation, dry powder (AID 1053164)
- test settings: Purified M. tb Lpd, DTNB colorimetric plate reader
Activity calls are given as the source filed them. How the calls were made is not given here.
Answer with one of the outcomes given here: yes (1) = active, no (0) = inactive

Hey, what did the test say about CO[C@H]1CC[C@H]2CCN(C)C(=O)[C@@H](c3ccccc3)N(C)C(=O)c3cccc(C#N)c3OC[C@@H]1O2 ?
no (0)

Okay, and CCCC[C@@H]1C(=O)N(C)CC[C@@H]2CC[C@H](OC)[C@H](COc3c(C#N)cccc3C(=O)N1C)O2 ?
no (0)

Okay, and CO[C@H]1CC[C@H]2CC(=O)N(C)CCN(C)C(=O)c3cccc(C#N)c3OC[C@@H]1O2 ?
no (0)

Okay, and CO[C@H]1CC[C@H]2CCN(C)C(=O)[C@@H](C(C)C)N(C)C(=O)c3cccc(C#N)c3OC[C@@H]1O2 ?
no (0)

Okay, and CO[C@H]1CC[C@H]2CCN(C)C(=O)CCCN(C)C(=O)c3cccnc3OC[C@@H]1O2 ?
no (0)

Okay, and CO[C@H]1CC[C@H]2CCN(C)C(=O)[C@H]3CCCN3C(=O)c3cccc(C#N)c3OC[C@@H]1O2 ?
no (0)

Okay, and CO[C@H]1CC[C@H]2CCN(C)C(=O)CN(C)C(=O)c3cccc(C#N)c3OC[C@@H]1O2 ?
no (0)

Okay, and CO[C@H]1CC[C@H]2CCN(C)C(=O)[C@@H](C)N(C)C(=O)c3c(C(F)(F)F)ccnc3OC[C@@H]1O2 ?
no (0)

Okay, and CO[C@H]1CC[C@H]2CCN(C)C(=O)[C@@H](C)N(C)C(=O)c3ccc(F)nc3OC[C@@H]1O2 ?
no (0)

Okay, and CO[C@H]1CC[C@H]2CCN(C)C(=O)CCN(C)C(=O)c3cccc(C#N)c3OC[C@@H]1O2 ?
no (0)

Okay, and CO[C@H]1CC[C@H]2CCN(C)C(=O)CCCN(C)C(=O)c3cccc(C#N)c3OC[C@@H]1O2 ?
no (0)

Okay, and CO[C@H]1CC[C@H]2CCN(C)C(=O)[C@@H](C)N(C)C(=O)c3cc(Cl)cnc3OC[C@@H]1O2 ?
yes (1)

Okay, and CO[C@H]1CC[C@H]2CCN(C)C(=O)[C@@H](Cc3ccccc3)N(C)C(=O)c3cccc(C#N)c3OC[C@@H]1O2 ?
no (0)

Okay, and CO[C@H]1CC[C@H]2CCN(C)C(=O)CCCN(C)C(=O)c3cc(Cl)cnc3OC[C@@H]1O2 ?
no (0)

Okay, and CO[C@H]1CC[C@H]2CCN(C)C(=O)[C@@H](C)N(C)C(=O)c3cccnc3OC[C@@H]1O2 ?
no (0)
